Test system: Pseudomonas aeruginosa ATCC 27853
Type: cell-based
cond: ATCC 27853
Bridge positions count the residues as written; N and C are the ends. Square brackets hold non-standard residues; d marks the D form. Peptide text beside a SMILES is read from it. * marks the point of attachment. X1 = CC[C@H](C)CCCCC(=O)*; dDab = NCC[C@@H](N)C(=O)O; Dab = NCC[C@H](N)C(=O)O; Dap = NC[C@H](N)C(=O)O
measure: MIC (µg/mL)
One number for each entry, in µg/mL.

Asked: Reported MIC, compound CC[C@H](C)CCCCC(=O)N[C@@H](CN)C(=O)N[C@H](C(=O)N[C@H](CCN)C(=O)N[C@H]1CCNC(=O)[C@H]([C@@H](C)O)NC(=O)[C@H](CCN)NC(=O)[C@H](CCN)NC(=O)[C@H](CC(C)C)NC(=O)[C@@H](Cc2ccccc2)NC(=O)[C@H](CCN)NC1=O)[C@@H](C)O [Compound 91] (X1-[Dap]T[dDab][Dab][Dab][dF]L[Dab][Dab]T; lactam 4-C) : ____
Given back: 0.5

---

System: Pseudomonas aeruginosa ATCC 27853
Assay type: cell-based
cond: ATCC 27853
Bridge positions count the residues as written; N and C are the ends. Square brackets hold non-standard residues; d marks the D form. Peptide text beside a SMILES is read from it. * marks the point of attachment. Dab(CH2SO3H) = N[C@@H](CCNCS(=O)(=O)O)C(=O)O; Heptanoyl(6-Me) = CC(C)CCCCC(=O)*; dOrn = NCCC[C@@H](N)C(=O)O; X1 = CC[C@H](C)CCCCC(=O)*; dDab = NCC[C@@H](N)C(=O)O; Heptanoyl = CCCCCCC(=O)*; Octanoyl = CCCCCCCC(=O)*; Dab = NCC[C@H](N)C(=O)O; Dap = NC[C@H](N)C(=O)O
Provide the reported MIC of each item.

Below, each entry is followed by its recorded MIC result.
molecule | MIC
CC(C)CCCCC(=O)N[C@@H](CCN)C(=O)N[C@H](C(=O)N[C@@H](CN)C(=O)N[C@H]1CCNC(=O)[C@H]([C@@H](C)O)NC(=O)[C@H](CCNCS(=O)(=O)O)NC(=O)[C@H](CCN)NC(=O)[C@H]([C@@H](C)O)NC(=O)[C@@H](Cc2ccccc2)NC(=O)[C@H](CCN)NC1=O)[C@@H](C)O [Compound 120] ({Heptanoyl(6-Me)}-[Dab]T[Dap][Dab][Dab][dF]T[Dab][Dab(CH2SO3H)]T; lactam 4-C) | 0.25 µg/mL
CC(C)CCCCC(=O)N[C@@H](CCN)C(=O)N[C@H](C(=O)N[C@H](CCCN)C(=O)N[C@H]1CCNC(=O)[C@H]([C@@H](C)O)NC(=O)[C@H](CCN)NC(=O)[C@H](CCN)NC(=O)[C@H](CC(C)C)NC(=O)[C@@H](Cc2ccccc2)NC(=O)[C@H](CCN)NC1=O)[C@@H](C)O [Compound 42] ({Heptanoyl(6-Me)}-[Dab]T[dOrn][Dab][Dab][dF]L[Dab][Dab]T; lactam 4-C) | 0.25 µg/mL
CCCCCCCC(=O)N[C@@H](CCN)C(=O)N[C@H](C(=O)N[C@@H](CN)C(=O)N[C@H]1CCNC(=O)[C@H]([C@@H](C)O)NC(=O)[C@H](CCN)NC(=O)[C@H](CCN)NC(=O)[C@H]([C@@H](C)O)NC(=O)[C@@H](Cc2ccccc2)NC(=O)[C@H](CCN)NC1=O)[C@@H](C)O [Compound 8] (Octanoyl-[Dab]T[Dap][Dab][Dab][dF]T[Dab][Dab]T; lactam 4-C) | 0.125 µg/mL
CC[C@H](C)CCCCC(=O)N[C@@H](CCN)C(=O)N[C@H](C(=O)N[C@H](CCN)C(=O)N[C@H]1CCNC(=O)[C@H]([C@@H](C)O)NC(=O)[C@H](CCN)NC(=O)[C@H](CCN)NC(=O)[C@H]([C@@H](C)O)NC(=O)[C@@H](Cc2ccccc2)NC(=O)[C@H](CCN)NC1=O)[C@@H](C)O [Compound 11] (X1-[Dab]T[dDab][Dab][Dab][dF]T[Dab][Dab]T; lactam 4-C) | 1 µg/mL

Switching to the query record.
Asked: Reported MIC, molecule CCCCCCC(=O)N[C@@H](CCN)C(=O)N[C@H](C(=O)N[C@H](CO)C(=O)N[C@H]1CCNC(=O)[C@H]([C@@H](C)O)NC(=O)[C@H](CN)NC(=O)[C@H](CCN)NC(=O)[C@H]([C@@H](C)O)NC(=O)[C@@H](Cc2ccccc2)NC(=O)[C@H](CCN)NC1=O)[C@@H](C)O [Compound 84] (Heptanoyl-[Dab]T[dS][Dab][Dab][dF]T[Dab][Dap]T; lactam 4-C) : ____
Given back: >64 µg/mL
